Where do the numbers come from? From the supplement of paper PMC9170038.

Tested on: MS2 coat protein
Test: apparent KD of MS2 coat protein; designed switch direction (-1 OFF switch, 1 ON switch): -1; higher = weaker reporter binding
Conditions: Eterna round: R95; input ligand: none
apparent KD of MS2 coat protein of 20 nM or higher: y. Under 20 nM: n.

Below, 6 sequences whose answers are already recorded.
Prompt line: Determine whether this sequence has apparent KD of MS2 coat protein no lower than 20 nM: GAAAAGGUAGGAUAUACGAAAACAAAGGGUAGAAACAAAACACAUGAGGAUCACCCAUGUAGAAGGACCAAAAG [salish99_ex2_r3_097] (puzzle: Exclusion 2)
Response line: y

Prompt line: Determine whether this sequence has apparent KD of MS2 coat protein no lower than 20 nM: AGUACUAACACGUUUGUGUUAGUACAAUAAGCUUGUGAAACAUGAGGAUCACCCAUGUCCUCAUAAGCUCGUCUUAU [salish99_TOv2_r3_069] (puzzle: Sensor v3, turn-off variant 2)
Response line: n

Prompt line: Determine whether this sequence has apparent KD of MS2 coat protein no lower than 20 nM: GAAAAGUGAGGAUAUGGUAAAAGAAAAAGAAAAAAAAAACUCCAGAAGGCACAUGAGGAUCACCCAUGUAAAAG [salish99_ex4_r3_004] (puzzle: Exclusion 4)
Response line: y

Prompt line: Determine whether this sequence has apparent KD of MS2 coat protein no lower than 20 nM: CAGGACUGAGGAUAUGCGCGGACAAGAUCCUCAAUCCCAAAACAUGAGGAUCACCCAUGUAGAAGGCAGAAAUA [Edbein] (puzzle: Exclusion 2)
Response line: y

Prompt line: Determine whether this sequence has apparent KD of MS2 coat protein no lower than 20 nM: AGUAACCGUCACGAAAGUGAUGGUUACGCAAGCAAAUGUACAUGAGGAUCACCCAUGUCCUCAAUUGCUCGUCUUAU [Sensor 3 - 51] (puzzle: Sensor v3, turn-off variant 2)
Response line: y

Prompt line: Determine whether this sequence has apparent KD of MS2 coat protein no lower than 20 nM: AGAAAUGCCCAUGGCCACAAGCUUCUUGCUUGUCUUACUACAUGAGGAUCACCCAUGUAACAUGGGCUCCUGAUAAU [Maonesra] (puzzle: Sensor v3, turn-off variant 2)
Response line: n

More entries:
Prompt line: Determine whether this sequence has apparent KD of MS2 coat protein no lower than 20 nM: CGUGACUCAGGAUAUCUAUAAUAUCACAUGAGGAUCACCCAUGUCCAGCGAAAGCUGGAGGGAGAAGGGAGUCACG [Fiskers Ex 5 - 35] (puzzle: Exclusion 5)
Response line: y

Prompt line: Determine whether this sequence has apparent KD of MS2 coat protein no lower than 20 nM: GAUAGAGAGCAGGAUAUCAUAGAAAUGUAUGAAUGAGAAGGGCUCACAUGAGGAUCACCCAUGUGGUCCUAGAU [JL Dibiri mod 19] (puzzle: Exclusion 6)
Response line: y

Prompt line: Determine whether this sequence has apparent KD of MS2 coat protein no lower than 20 nM: UGUACGAUGCGUGCUGACAUGCGUCGUGCAGCAGGUGAUACAUGAGGAUCACCCAUGUCCUCAUUUGCUCGUCAUGU [Mat - Sensor v3 - Turn-off var 2 - D25] (puzzle: Sensor v3, turn-off variant 2)
Response line: y

Prompt line: Determine whether this sequence has apparent KD of MS2 coat protein no lower than 20 nM: AGUACUAACACGAAAGUGUUAGUACAACAAGCUUGUGAAACAUGAGGAUCACCCAUGUCCUCAUAAGCUCGUCUUAU [salish99_TOv2_r3_042] (puzzle: Sensor v3, turn-off variant 2)
Response line: n
